Reported T/C is given for each of the following compounds.
- Test system: BDF1 mice, B16 melanoma ip, median survival T/C
- method-notes: NCI In Vivo Anticancer Drug Screen. Data for tumor model B16 Melanoma (intraperitoneal) in B6D2F1 (BDF1) mice
- test-settings: endpoint: median survival time; dose: 50.0 mg/kg/injection; schedule: Q01DX009 (ip); vehicle: Klucel (hydroxypropylcellulose) (HPC); higher = longer survival
Toxic doses and inconclusive results are not listed.
readout-name: T/C

record-smiles	reading
CN1CCN(c2ccc(Cl)cc2)CC1	100 % of control
Cc1cc2no[n+]([O-])c2cc1C	116 % of control
CCCCC(C)(C(=O)OCC)C(=O)OCC	102 % of control

----------
- Tested on: BDF1 mice, B16 melanoma ip, median survival T/C
- method-notes: NCI In Vivo Anticancer Drug Screen. Data for tumor model B16 Melanoma (intraperitoneal) in B6D2F1 (BDF1) mice
- test-settings: endpoint: median survival time; dose: 200.0 mg/kg/injection; schedule: Q01DX009 (ip); vehicle: Klucel (hydroxypropylcellulose) (HPC); higher = longer survival
Inconclusive results and toxic doses are left out.
Reported T/C is given for each of the following compounds.

compound	target-of-assay	T/C
COc1ccc(-c2nc3cc(Cl)ccc3c(=O)o2)cc1	BDF1 mice, B16 melanoma ip, median survival T/C	115 % of control
CCN(C(=O)c1cccc(C(=O)N(CC)c2ccccc2C)c1)c1ccccc1C	BDF1 mice, B16 melanoma ip, median survival T/C	102 % of control
CC[C@H](CC[C@@H](C)[C@H]1CC[C@H]2[C@@H]3CC=C4C[C@@H](O)CC[C@]4(C)[C@H]3CC[C@]12C)C(C)C	BDF1 mice, B16 melanoma ip, median survival T/C	109 % of control
CCOC(=O)C[Si](C)(C)C	BDF1 mice, B16 melanoma ip, median survival T/C	107 % of control
CCC(=O)c1cc([N+](=O)[O-])ccc1NC(C)=O	BDF1 mice, B16 melanoma ip, median survival T/C	107 % of control
CCCCCCC(=O)CCCC(C)CCCC(C)C (stereo not given)	BDF1 mice, B16 melanoma ip, median survival T/C	88 % of control
CCC(C)C1CCCCC1 (stereo not given)	BDF1 mice, B16 melanoma ip, median survival T/C	108 % of control
Cc1cc2c(cc1C)NC(=O)C(C)CN2 (stereo not given)	BDF1 mice, B16 melanoma ip, median survival T/C	88 % of control
CCCCOC(=O)C1C(C(=O)OCCCC)C2(Cl)C(Cl)=C(Cl)C1(Cl)C2(Cl)Cl (stereo not given)	BDF1 mice, B16 melanoma ip, median survival T/C	116 % of control
CN(C(=N)N)c1ccc(C(=O)Oc2ccc([N+](=O)[O-])cc2)cc1	BDF1 mice, B16 melanoma ip, median survival T/C	103 % of control
Ic1ncnc2c1ncn2C1CCCO1 (stereo not given)	BDF1 mice, B16 melanoma ip, median survival T/C	104 % of control
CC(C)c1ccc(NC(=O)Nc2cccc3ccccc23)cc1	BDF1 mice, B16 melanoma ip, median survival T/C	97 % of control
O=C(O)CC(NC(=O)OCc1ccccc1)C(=O)OCc1ccccc1 (stereo not given)	BDF1 mice, B16 melanoma ip, median survival T/C	92 % of control
O=C1c2ccccc2CC12OC2c1ccccc1 (stereo not given)	BDF1 mice, B16 melanoma ip, median survival T/C	103 % of control
O=S1(=O)C=Cc2ccccc21	BDF1 mice, B16 melanoma ip, median survival T/C	88 % of control
COc1ccc(-c2cc(=O)c3c(ccc4ccccc43)o2)cc1	BDF1 mice, B16 melanoma ip, median survival T/C	100 % of control
CCOC(=O)C(Cc1c[nH]c2cc(N)ccc12)(NC(C)=O)C(=O)OCC	BDF1 mice, B16 melanoma ip, median survival T/C	87 % of control
CCc1ccccc1NC(=O)c1cccc(C(=O)Nc2ccccc2CC)c1	BDF1 mice, B16 melanoma ip, median survival T/C	102 % of control
O=C(Cl)c1ccc(OC(Cl)(Cl)Cl)cc1	BDF1 mice, B16 melanoma ip, median survival T/C	93 % of control
COc1ccc(-c2c(CC(=O)O)c3cc(OC)ccc3n2Cc2ccc(Cl)cc2)cc1	BDF1 mice, B16 melanoma ip, median survival T/C	94 % of control
